# study_target: GABA-A receptor; alpha-1/beta-2/gamma-2 (Homo sapiens) (UniProt P14867+P47870+P18507)
# assay_details: Modulation of human recombinant GABA-A alpha1beta2gamma2L receptor expressed in Xenopus laevis oocytes assessed as effect on GABA-induced chloride current at 1 uM incubated 60 seconds before addition of GABA measured after 30 seconds at holding potential -70 mV by two-microelectrode voltage clamp technique relative to control
# Type: cell-based
# cond: Oocyte
parameter: Activity
Express the reported value numerically, then name its unit.

The molecule `CCOC(=O)c1ncn2c1CN=C(c1ccc(C)cc1)c1ccccc1-2` showed Activity equal to 8%

The reported value for `CCOC(=O)c1ncn2c1CN=C(c1cccc([N+](=O)[O-])c1)c1cc(F)ccc1-2` in terms of Activity is 14%

Given item `CCOC(=O)c1ncn2c1CN=C(c1ccc(Cl)cc1)c1ccccc1-2` , the value recorded as its Activity is 3.6%

Entry under test: `CCOC(=O)c1ncn2c1CN=C(c1ccc(F)cc1)c1cc(F)ccc1-2` . Its Activity was -13%

Every entry's value here was drawn from ChEMBL document CHEMBL2169854.
